All values here come from BindingDB's records for PubMed 20126400.

What pKi was measured for each of the following?
Molecular target: UniProt P11229
Sequence (P11229 whole entry): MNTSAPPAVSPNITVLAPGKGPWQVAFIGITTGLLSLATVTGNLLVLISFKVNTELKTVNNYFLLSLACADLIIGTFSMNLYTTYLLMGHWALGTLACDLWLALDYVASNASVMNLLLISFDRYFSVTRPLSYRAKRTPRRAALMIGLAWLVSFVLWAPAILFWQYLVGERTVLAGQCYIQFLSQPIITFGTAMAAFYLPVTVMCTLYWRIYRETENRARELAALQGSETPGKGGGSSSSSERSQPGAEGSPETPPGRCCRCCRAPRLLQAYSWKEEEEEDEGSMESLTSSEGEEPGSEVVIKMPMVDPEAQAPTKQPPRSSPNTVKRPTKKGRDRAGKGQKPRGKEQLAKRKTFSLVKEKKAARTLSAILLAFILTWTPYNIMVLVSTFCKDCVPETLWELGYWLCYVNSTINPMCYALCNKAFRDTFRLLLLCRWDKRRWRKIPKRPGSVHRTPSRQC
pKi: −log10 of the molar value.

Below are worked cases with known answers.
{"Compound": "COc1ccc2[nH]cc(CCN(C(C)C)C(C)C)c2c1", "pKi": "< 5.00"}
{"Compound": "CCSc1cc(OC)c(CC(C)N)cc1OC (stereo unspecified)", "pKi": "< 5.00"}
{"Compound": "COc1ccc2[nH]c(C)c(CCN(C)C)c2c1", "pKi": "< 5.00"}
{"Compound": "CN(C)CCc1c[nH]c2ccccc12", "pKi": "< 5.00"}
{"Compound": "CN(C)CCc1c[nH]c2cc(F)ccc12", "pKi": "< 5.00"}

Next:
Record `COC(=O)[C@@H]1C[C@H](OC(C)=O)C(=O)[C@H]2[C@@]1(C)CC[C@H]1C(=O)O[C@H](c3ccoc3)C[C@]21C` . Reported pKi: < 5.00
